Data provenance: the supplement of paper PMC10567573

B1: ISL2 (parent)
chain: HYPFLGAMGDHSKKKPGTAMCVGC

Variants of: B1
measurementDescription: protein stability index of a GFP-peptide fusion (GPS, HEK-293T) (PSI 1-6); higher = more stable;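 also: lentivirally expressed fusions sorted by FACS into six bins by GFP to DsRed ratio, PSI derived from sequencing read proportions per bin multiplied by bin number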
conditionSet: c terminus: a fixed tail appended
parameterMeasured: protein stability index
Reply with just the number.

>>> experimentalresult("G6F")
1.86
>>> experimentalresult("H11N")
2.92
>>> experimentalresult("L5I")
3.14
>>> experimentalresult("C21P")
3.59
>>> experimentalresult("P16Q")
2.44
>>> experimentalresult("F4S")
3.48

Dear colleague, I am looking for the recorded protein stability index of the following variant: P16L
2.17

Sample K13V — what was its protein stability index?
2.4

protein stability index lookup needed for K15N , thanks.
2.61

Name the recorded protein stability index for P3D .
1.96

Request the reported protein stability index associated with G9T
2.82

What value of protein stability index has been reported for the following variant? G9L
2.4

What value of protein stability index has been recorded for this entry: V22P
3.05

Value lookup for protein stability index; key = C24A
3.09

Name the recorded protein stability index for Y2C .
2.53

// lookup protein stability index for S12N
2.92

So what's the measured protein stability index for this one? S12Q
3.07

GET /values?readout=protein stability index&item= H11I
2.33

Fill blank: measured protein stability index of the variant F4H is ____.
3.73
